Readings of kon for the listed binders
Target: T1, human VEGF-A165 (VEGF homodimer with each monomer having 165 amino acid residues) (Homo sapiens, UniProt P15692-4, strain, biotin (site not stated; named for Supplementary Table 2 only))
T1 construct: also called hVEGF-A165; hVEGF; source: bought: Peprotech (catalogue number AF-100-20)
T1 sequence (P15692 whole entry, looked up, change not shown): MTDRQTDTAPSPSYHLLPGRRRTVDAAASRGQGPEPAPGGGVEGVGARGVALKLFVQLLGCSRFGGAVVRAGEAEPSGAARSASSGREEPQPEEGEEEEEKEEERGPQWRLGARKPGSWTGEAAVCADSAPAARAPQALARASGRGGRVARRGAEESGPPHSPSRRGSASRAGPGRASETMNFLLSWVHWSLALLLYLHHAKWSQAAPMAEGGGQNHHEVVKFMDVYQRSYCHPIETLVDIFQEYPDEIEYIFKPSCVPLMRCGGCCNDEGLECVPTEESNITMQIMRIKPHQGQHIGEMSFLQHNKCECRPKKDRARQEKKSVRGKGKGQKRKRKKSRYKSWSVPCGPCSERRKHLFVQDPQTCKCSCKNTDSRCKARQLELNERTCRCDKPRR
Assay: SPR; Biacore as per the manufacturer's protocol; kinetic rate constants and affinity of the Fab constructs for biotinylated hVEGF-A165
Details: both partners purified
Answer format: numeric, M⁻¹ s⁻¹ implied, no suffix.

As a guide, the following entries are already answered.
>>> readout_number("LAVA25, non-glycosylated variant of LAVA1 (Fab, V domains shown, as the Fab part of the heavy chain of Dm4 (LAVA1); linker; TSG6, human, LINK domain (HABP), the N-linked glycosylation site deleted by substitution of the asparagine residue; as the light chain of Dm4 (LAVA1); The substitution is in Supplementary Data 2) VH: EVQLVESGGGLVQPGGSLRLSCTASGFSLTDYYYMTWVRQAPGKGLEWVGFIDPDDDPYYATWAKGRFTISRDNSKNTLYLQMNSLRAEDTAVYYCAGGDHNSGWGLDIWGQGTLVTVSS VL: EIVMTQSPSTLSASVGDRVIITCQASEIIHSWLAWYQQKPGKAPKLLIYLASTLASGVPSRFSGSGSGAEFTLTISSLQPDDFATYYCQNVYLASTNGANFGQGTKLTVL")
"1.86e+07"
>>> readout_number("LAVA24, non-glycosylated variant of LAVA1 (Fab, V domains shown, as the Fab part of the heavy chain of Dm4 (LAVA1); linker; TSG6, human, LINK domain (HABP), the N-linked glycosylation site deleted by substitution of the asparagine residue; as the light chain of Dm4 (LAVA1); The substitution is in Supplementary Data 2) VH: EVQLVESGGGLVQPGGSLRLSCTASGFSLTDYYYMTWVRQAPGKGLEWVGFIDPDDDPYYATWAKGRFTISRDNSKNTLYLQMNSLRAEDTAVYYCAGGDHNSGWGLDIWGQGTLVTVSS VL: EIVMTQSPSTLSASVGDRVIITCQASEIIHSWLAWYQQKPGKAPKLLIYLASTLASGVPSRFSGSGSGAEFTLTISSLQPDDFATYYCQNVYLASTNGANFGQGTKLTVL")
"2.25e+07"

Now for the binder whose kon we want.
I have this binder here, NVS0, the Fab version of brolucizumab (Fab, V domains shown, as the Fab part of the heavy chain of Dm4 (LAVA1), without the GSGGG linker and the LINK domain; as the light chain of Dm4 (LAVA1); Made by converting the anti-VEGF scFv brolucizumab to a Fab format; also called untagged anti-VEGF Fab) VH: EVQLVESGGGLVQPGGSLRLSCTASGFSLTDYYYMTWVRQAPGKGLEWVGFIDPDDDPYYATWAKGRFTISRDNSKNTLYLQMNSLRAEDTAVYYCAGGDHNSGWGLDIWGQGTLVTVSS VL: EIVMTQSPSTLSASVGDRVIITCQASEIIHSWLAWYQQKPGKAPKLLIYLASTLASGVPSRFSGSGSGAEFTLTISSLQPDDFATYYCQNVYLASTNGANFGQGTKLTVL , and I need its recorded kon. 5.51e+06
